# Tested on: P. falciparum 3D7 growth, pLDH absorbance
# assayProcedure: blood-stage malaria parasite growth potency – strain 3D7, dose response (AID 2305)
pIC50: −log10 of the molar value.
Label Fulfilled for high-side pIC50 (at or above 6) and Not fulfilled for low-side pIC50 (below it).

Exam item: decide whether the reported pIC50 for CCC[C@@H]([C@@H](CC(C)C)C(=O)N[C@@H](CCCNc1nccc(C(F)(F)F)n1)C(=O)Nc1nccs1)N(O)C=O is at least 6.
Fulfilled

Same read-out for Cc1cccc2[nH]c(-c3cccc(-c4cccc(NC(=O)C(C)CN5CCN(C)CC5)c4)c3)nc12 (stereo not drawn) ?
Fulfilled

Same read-out for COc1ccc2c(ccc3c2ncc2c(=O)n(-c4ccccc4)[nH]c23)c1 ?
Fulfilled

Same read-out for COc1ccc(Br)cc1/C=C/C(=O)Nc1ccc2c(c1)CCCN(C)C2 ?
Not fulfilled

Same read-out for Cc1cc(N2CCCC2)nc(Nc2ccc(NC(=O)COc3ccccc3)cc2)n1 ?
Fulfilled

----------
# Tested on: P. falciparum 3D7 growth, pLDH absorbance
# assayProcedure: blood-stage malaria parasite growth potency – strain 3D7, dose response (AID 2305)
endpointLabel: pIC50
# reply with the number alone; pIC50 is -log10 of concentration in mol/L

State the recorded pIC50 for this entry: CC(C)(C)c1ccc2nc(-c3ccc(C(=O)NCc4cccc(C(F)(F)F)c4)cc3)[nH]c2c1
6.14

Same read-out for CC=CC(=O)N1CCN(c2nccc(-c3ccc(C(C)(C)C)cc3)n2)CC1 ?
5.97

Same read-out for O=c1cc(NCCCNCc2csc(Br)c2Sc2ccc(Cl)cc2)[nH]c2ccccc12 ?
6.07

Same read-out for CCNc1cc(C(=O)N[C@@H](Cc2ccccc2)[C@H](O)CNC(CC)c2cccc(Cl)c2)cc(N2CCCC2=O)c1 (stereo partly drawn) ?
7.52

Same read-out for CCCc1cc(Cc2cnc(N)nc2N)cc(OC)c1OC ?
6.00

Same read-out for COc1cc2nc(N3CCC(CNC(=O)c4ccc(-c5ccc(C(F)(F)F)cc5)cc4)CC3)nc(N)c2cc1OC ?
6.89

Same read-out for CCC(C)c1cnc2nc(N)nc(N)c2c1C (stereo not drawn) ?
6.36

Same read-out for O=C(N[C@@H](CC1CCCCC1)C(=O)NCc1cccc(C(F)(F)F)c1)c1ccc(O)c(-c2ccc(Cl)c(Cl)c2)c1 ?
6.66

----------
# Test system: P. falciparum 3D7 growth, pLDH absorbance
# assayProcedure: blood-stage malaria parasite growth potency – strain 3D7, dose response (AID 2305)
endpointLabel: pIC50
# reply with the number alone; pIC50 is -log10 of concentration in mol/L

State the recorded pIC50 for this entry: O=C(CC1CCCC1)N(Cc1ccc(-c2ccc(CNC3Cc4ccccc4C3)cc2)cc1)CC1CCCCN1 (centres undefined)
5.97

Same read-out for O=C(/C=C/c1ccc(Cl)c(Cl)c1)NCCCCCN1CCC(c2[nH]nc(-c3ccccc3)c2Br)CC1 ?
6.14

Same read-out for Nc1ncc(-c2ccsc2)cc1-c1nc2ccccc2[nH]1 ?
6.07

Same read-out for Oc1ccc2[nH]cc(C3CCN(CCC(c4ccccc4)c4ccccc4)CC3)c2c1 ?
6.00

Same read-out for O=C(/C=C/c1ccc(Cl)c(Cl)c1)NCCCCCN1CCC(C(=O)Nc2ccc(Cl)c(Cl)c2)CC1 ?
6.19

Same read-out for O=C(C1CCN(C(c2ccccc2)c2ccc(Cl)c(Cl)c2)CC1)N1CC=CC1 (centres undefined) ?
6.14

Same read-out for CCCc1cc(C(=O)N[C@@H](Cc2ccccc2)[C@H](O)CNC2CCOCC2)c(F)c(N2CCCCS2(=O)=O)c1 ?
6.77

Same read-out for O=C1NC(=O)C(c2cccc(NC(=O)c3ccncc3)c2)=C1c1ccccc1 ?
6.13

Same read-out for CC(C)CNCc1ccc(-c2cccc(CNC3CCN(Cc4ccccc4)CC3)c2)cc1 ?
6.62

Same read-out for Cc1ccc(C2(CN3CCC(NC(=O)c4[nH]ncc4Cl)CC3)CCCCC2)cc1 ?
6.49

Same read-out for CN(c1ccc(F)cc1)S(=O)(=O)c1ccc(Cl)c(C(=O)Nc2cccc(C#N)c2)c1 ?
6.15

Same read-out for NC(=O)c1ccccc1OCC(=O)Nc1ccc(-c2cccc(-c3nc4ccc(C(F)(F)F)cc4[nH]3)c2)cc1 ?
6.01

Same read-out for O=C(NC1CCN(Cc2ccccc2O)C1)c1cccc(C(F)(F)F)c1 (centres undefined) ?
6.14

Same read-out for COc1ccc(CNCc2ccc(-c3ccc(-c4nc5ccc(C(F)(F)F)cc5[nH]4)cc3)cc2)cc1 ?
6.89

Same read-out for COc1ccc2c(=O)c(-c3ccc(OC(F)(F)F)cc3)c(C)[nH]c2c1 ?
6.64

Same read-out for Cn1cnc2c(Nc3ccncc3)nc(-c3ccc4c(c3)OCO4)nc21 ?
5.95

Same read-out for O=C(NCc1ccccc1)C1Cc2c([nH]c3ccc(Br)cc23)C2(CCN(Cc3ccccc3)CC2)N1 (centres undefined) ?
6.06

Same read-out for FC(F)(F)c1ccc2nc(-c3ccc(-c4ccc(CN5CCN(c6cnccn6)CC5)cc4)s3)[nH]c2c1 ?
6.19

Same read-out for COc1ccc2nccc([C@@H](O)CN3CCC(NCc4nc5ccc(F)cc5[nH]4)CC3)c2c1 ?
6.14

Same read-out for CN(C)c1ccc(OCCCCCCOc2ccccc2)cc1 ?
6.30

Same read-out for O=C(Nc1cccc(-c2csc(-c3nc4ccccc4[nH]3)c2)c1)c1ccncc1 ?
6.59

Same read-out for CC(=O)Nc1ccc(OCCCCN(Cc2ccccc2C(F)(F)F)c2ccc(C#N)c(C(F)(F)F)c2)c(Cl)c1 ?
6.01

Same read-out for O=C(Nc1cccc(Cl)c1)OC1CCCN2CCCCC12 (centres undefined) ?
5.99

Same read-out for c1ccc(CNCc2cccc(-c3ccc(-c4nc5ccccc5[nH]4)s3)c2)cc1 ?
6.09

Same read-out for CC(=O)Nc1ccc(OCCCCN(Cc2ccccc2C(F)(F)F)c2ccc(C#N)c(C(F)(F)F)c2)cc1 ?
5.86

Same read-out for O=C(Nc1ccc(C(=O)N2CCN(CCN3CCN(c4cccc(C(F)(F)F)c4)CC3)CC2)cc1)c1ccc(C(F)(F)F)cc1 ?
6.16

Same read-out for CCC(Nc1noc(-c2c(-c3ccccc3)noc2C)n1)c1ccccc1 (centres undefined) ?
6.01

Same read-out for CC(C)(C)c1ccc(NC(=O)c2cccc(CN3CCCN(Cc4ccc(F)cc4)CC3)c2)cc1 ?
6.00

Same read-out for O=c1cc(NCCCNCc2ccc(C(F)(F)F)c(F)c2)[nH]c2ccccc12 ?
5.92
